Listed below: inhibition at 10 µM values for each entry.
System: primary mouse cortical neurons
Construct: primary cortical neurons, DIV 10
Experimental Protocol: cells
Set-up: Protection from NMDA-induced (30 uM, 10 min) neuronal death; Hoechst nuclear morphology by automated microscopy
Setup Conditions: Cortical neurone, 20 h, read-out: % inhibition, inhibition of NMDA-induced cell death (protection score), 30 min pre-treatment
Counter-ions that a name gives are not always drawn.

Sample answers from the record:
| Compound | Study System | inhibition at 10 µM |
| --- | --- | --- |
| O=P(O)(O)C(O)(Cc1cccnc1)P(=O)(O)O [Risedronate sodium] | primary mouse cortical neurons | 4.5% |
| Nc1nc(Cl)nc2c1ncn2[C@H]1C[C@H](O)[C@@H](CO)O1 [Cladribine] | primary mouse cortical neurons | -1.65% |
| O=C(O)/C=C/c1ccc(O)c(O)c1 [Caffeic acid] | primary mouse cortical neurons | -2.37% |

inhibition at 10 µM for OC[C@@H](O)[C@@H](O)[C@H](O)[C@H](O)CO [D-Mannitol (Osmitrol)] ?
5.76%

Then this compound: NCCS(=O)(=O)O [Taurine]
8.63%

Would you kindly repeat that for CCCCN1CCCCC1C(=O)Nc1c(C)cccc1C (stereo not drawn) [Bupivacaine hydrochloride (Marcain)] ?
-1.92%

Same read-out for CO[C@H]1/C=C/O[C@@]2(C)Oc3c(C)c(O)c4c(O)c(c5c(c4c3C2=O)=NC2(CCN(CC(C)C)CC2)N=5)NC(=O)/C(C)=C\C=C\[C@H](C)[C@H](O)[C@@H](C)[C@@H](O)[C@@H](C)[C@H](OC(C)=O)[C@@H]1C [Rifabutin (Mycobutin)] ?
-2.35%

Follow-up entry: Oc1cc2c(cc1O)[C@@H]1c3ccc(O)c(O)c3OC[C@]1(O)C2 [Hematoxylin (Hydroxybrazilin)]
1.27%

Record: C[C@@H]1C/C=C/C=C/C=C/C=C/[C@H](O[C@@H]2O[C@H](C)[C@@H](O)[C@H](N)[C@@H]2O)C[C@@H]2O[C@](O)(C[C@@H](O)C[C@H]3O[C@@H]3/C=C/C(=O)O1)C[C@H](O)[C@H]2C(=O)O [Natamycin (Pimaricin)]
-0.639%

Then what about the compound CC(c1cc2ccccc2s1)N(O)C(N)=O (stereo not drawn) [Zileuton] ?
-10.2%

Then this compound: Nc1nc2[nH]cnc2c(=S)[nH]1 [Thioguanine]
13%

// same read-out, input: Cc1cc(NS(=O)(=O)c2ccc(N)cc2)no1 [Sulfamethoxazole]
-1.59%

What do you have for Nc1nc(F)nc2c1ncn2[C@@H]1O[C@H](COP(=O)(O)O)[C@@H](O)[C@@H]1O [Fludarabine Phosphate (Fludara)] ?
-10.8%

Next: CCCCC1C(=O)N(c2ccccc2)N(c2ccccc2)C1=O [Phenylbutazone (Butazolidin, Butatron)]
47.4%

Lookup CCC[C@@H]1C[C@@H](C(=O)N[C@@H]([C@H]2O[C@H](SC)[C@H](O)[C@@H](O)[C@H]2O)[C@H](C)Cl)N(C)C1 [Clindamycin hydrochloride (Dalacin)]
2.41%
